# Tested on: rodent lifetime carcinogenesis bioassay, tumor incidence TD50
# testName: carcinogenic potency in animals, long-term in vivo studies, CPDB compilation (AID 1745844)
# conditionLabel: rat; strain Sprague-Dawley; females; i.p.; site: any site (literature study); lesion: several types; types named in the paper; dosed 36 weeks; study length 81 weeks
quantityKind: TD50 (mg/kg/day)
Entry rule: numbers only, all in mg/kg/day.

Asked: Send back rodent lifetime carcinogenesis bioassay, tumor incidence TD50 TD50 of S=P(N1CC1)(N1CC1)N1CC1 only.
Given back: 0.0404

---

# Test system: rodent lifetime carcinogenesis bioassay, tumor incidence TD50
# testName: carcinogenic potency in animals, long-term in vivo studies, CPDB compilation (AID 1745844)
# conditionLabel: mouse; strain OF1; males; in feed; site: any site (literature study); lesion: several types; types named in the paper; dosed 74 weeks; study length 74 weeks
Calls of active or inactive are those of the source. The rule behind the calls is not given here.
quantityKind: TD50

Asked: Report TD50 for CC(C)C[C@H]1C(=O)N2CCC[C@H]2[C@]2(O)O[C@](NC(=O)[C@@H]3C=C4c5cccc6[nH]c(Br)c(c56)C[C@H]4N(C)C3)(C(C)C)C(=O)N12
Given back: 68 mg/kg/day (inactive)
